molecular target: psBBOX-Y201C-BFA (psBBOX*) (Pseudomonas sp., UniProt P80193, Y201C); construct: hexa-His tag (pCOLDI) (N); experiment: 1H NMR binding assay with psBBOX-Y201C-BFA (psBBOX*)
Sequence (P80193 whole entry Y201C): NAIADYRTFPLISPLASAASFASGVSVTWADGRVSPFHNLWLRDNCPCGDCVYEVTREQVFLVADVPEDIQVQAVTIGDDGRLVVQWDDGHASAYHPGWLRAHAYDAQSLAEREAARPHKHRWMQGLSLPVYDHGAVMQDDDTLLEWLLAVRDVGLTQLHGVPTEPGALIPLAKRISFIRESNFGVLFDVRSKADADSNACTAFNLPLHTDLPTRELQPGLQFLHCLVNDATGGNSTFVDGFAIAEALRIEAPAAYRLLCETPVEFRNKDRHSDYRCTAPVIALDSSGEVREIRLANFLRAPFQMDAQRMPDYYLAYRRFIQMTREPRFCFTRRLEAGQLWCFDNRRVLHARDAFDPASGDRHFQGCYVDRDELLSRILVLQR
assay.endpoint: pKd
Numbers only, as −log10 of the molar value.

query: Input C[N+](C)(C)NCCC(=O)[O-] [Mildronate, reference compound] , output reported pKd.
result: 4.91

---

Biological target: wt-psBBOX (Pseudomonas sp., UniProt P80193)
Sequence (P80193 whole entry): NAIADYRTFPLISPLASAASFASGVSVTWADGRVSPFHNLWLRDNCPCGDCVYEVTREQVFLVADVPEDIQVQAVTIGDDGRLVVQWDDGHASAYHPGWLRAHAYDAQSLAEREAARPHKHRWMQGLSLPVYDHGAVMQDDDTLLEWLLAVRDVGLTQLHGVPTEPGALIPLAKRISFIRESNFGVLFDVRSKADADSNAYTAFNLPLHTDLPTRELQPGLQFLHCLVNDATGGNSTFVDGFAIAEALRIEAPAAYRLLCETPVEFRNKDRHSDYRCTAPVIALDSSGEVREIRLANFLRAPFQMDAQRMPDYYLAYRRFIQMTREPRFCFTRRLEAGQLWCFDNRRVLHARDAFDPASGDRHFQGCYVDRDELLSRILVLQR
Assay: Fluoride release assay
Excerpt: The combined NMR studies on ligand binding led to the proposal that a new BBOX inhibitor scaffold could be identified by directly incorporating analogues of identified 2OG and GBB binding motifs, comprising appropriately positioned metal chelating and quaternary ammonium moieties, giving a ‘co-substrate/substrate’ mimic. […] (B) RL190B is a 2OG and substrate mimic. […] (D) RL190B inhibition of wt-psBBOX as determined by a fluoride release assay.[31] […]
assay.endpoint: IC50 (µM)
Give bare numbers, in µM.

query: Input C[N+](C)(C)CCCCN(O)C(=O)/C=C/C(=O)O [RL190B] , output reported IC50.
result: 5

---

biological target: wt-psBBOX (Pseudomonas sp., UniProt P80193); conditions: 2 μM psBBOX, 50 μM metal, 50 mM HEPES pH 7.5
We label by threshold. Values of Tm strictly beneath 7 are Y. Values of 7 and up are N.

Answered examples (5):
molecule	system	qualitative.label
[Cu+2] [Cu(II)]	wt-psBBOX (Pseudomonas sp., UniProt P80193)	Y
[Co+2] [Co(II)]	wt-psBBOX (Pseudomonas sp., UniProt P80193)	Y
[Mn+2] [Mn(II)]	wt-psBBOX (Pseudomonas sp., UniProt P80193)	N
[Ni+2] [Ni(II)]	wt-psBBOX (Pseudomonas sp., UniProt P80193)	N
[Mg+2] [Mg(II)]	wt-psBBOX (Pseudomonas sp., UniProt P80193)	N

query: Hello, I'm reviewing records and need to know if Tm of [Na+] [Na(I)] is below 7. Could you check?
result: N

query: Hello, I'm reviewing records and need to know if Tm of [Zn+2] [Zn(II)] is below 7. Could you check?
result: Y

---

target: wt-psBBOX (Pseudomonas sp., UniProt P80193); conditions: 2 μM psBBOX, 50 μM metal, 50 mM HEPES pH 7.5; relative to protein without metal
assay.endpoint: Tm Shift (°C)
One number for each entry, in °C.

The following molecules have reported results that may help.
molecule	units.text	Tm Shift
[Ni+2] [Ni(II)]	°C	18.1
[Zn+2] [Zn(II)]	°C	12.8
[Fe+2] [Fe(II)]	°C	8.4
[Na+] [Na(I)]	°C	0.2
[Mn+2] [Mn(II)]	°C	1.3

Provide Tm Shift for all items below, preserving their order.
1. [Co+2] [Co(II)]
2. [Mg+2] [Mg(II)]
3. [Cu+2] [Cu(II)]

result:
[15.7, 0.0, 12.4]

query: Input [K+] [K(I)] , output reported Tm Shift.
result: 0.0
